Attribution: the supplement of paper PMC8671470

tested on: myeloid leukemia patient primary cells Pat.5; assay: cell viability (% survival relative to DMSO control); higher = less cytotoxic; settings: 1 nM; 72 h
reported.property: cell viability (%)
Just the number please, in %, no unit attached.

[in] Requested read-out: cell viability. Entry: Oc1ncc(F)c(O)n1 [5-fluorouracil]
[out] 88.1

[in] Requested read-out: cell viability. Entry: c1ccc2c(c1)SCc1c-2[nH]c2ccccc12
[out] 82.4

[in] Requested read-out: cell viability. Entry: Cc1nnc(-c2ccc(N3CCC(Oc4ccccc4C(F)(F)F)CC3)nn2)s1 [MF-438]
[out] 32.8

[in] Requested read-out: cell viability. Entry: O=C(CCl)N(CCCNC(=O)C(F)(F)F)c1ccc([N+](=O)[O-])cc1 [ML-175]
[out] 99.9

[in] Requested read-out: cell viability. Entry: O=C(Cc1cccc(OC(F)(F)F)c1)Nc1ccc(CCCCc2nnc(NC(=O)Cc3ccccn3)s2)nn1 [CB-839]
[out] 17.1

[in] Requested read-out: cell viability. Entry: NS(=O)(=O)c1ccc(S(=O)(=O)Nc2cccc3c(Cl)c[nH]c23)cc1 [Indisulam]
[out] 47.7

Others:
[in] Requested read-out: cell viability. Entry: CCn1c(=O)/c(=C2\Sc3ccccc3N2C)s/c1=C\c1cccc[n+]1CC.[Cl-] [MKT-077]
[out] 2.39

[in] Requested read-out: cell viability. Entry: CC(C)c1onc(-c2c(Cl)cccc2Cl)c1COc1ccc(/C=C/c2cccc(C(=O)O)c2)c(Cl)c1 [GW 4064]
[out] 80.1

###

Form field: cell viability (one value per entry).
test system: MOLM-13; assay: cell viability (% survival relative to DMSO control, bortezomib = 0%); higher = less cytotoxic; conditions: 10000 nM; 72 h
Counter-ions that a name gives are not always drawn.
Just the number please, in %, no unit attached.

[in] Requested read-out: cell viability. Entry: Fc1ccc(CNc2ncnc3ccc(F)cc23)cc1
[out] 50.9

[in] Requested read-out: cell viability. Entry: C#CCN[C@@H]1CCc2ccccc21
[out] 111

[in] Requested read-out: cell viability. Entry: CC(C)(Cc1ccccc1)NCC(O)c1ccc(O)c(NS(C)(=O)=O)c1 (configuration not stated) [Zinterol hydrochloride]
[out] 98

[in] Requested read-out: cell viability. Entry: NS(=O)(=O)c1ccc(NC(=O)Cc2ccccc2)cc1 [4-(2-Phenylacetamido)Benzenesulfonamide]
[out] 81.3

[in] Requested read-out: cell viability. Entry: CCC(CC#N)OC(=O)N[C@@H](C)c1cccc(NC(=O)Nc2ccc(-c3cnco3)c(OC)c2)c1 (stereo in doubt)
[out] 0.252

Others:
[in] Requested read-out: cell viability. Entry: CC(C)(CCCCCCCCCCC(C)(C)CC(=O)O)CC(=O)O
[out] 96.7

[in] Requested read-out: cell viability. Entry: C=C1C(=O)O[C@H](CCCCCCCC)[C@H]1C(=O)O
[out] 137

[in] Requested read-out: cell viability. Entry: CC(C)c1ccc2c(c1)c(SC(C)(C)C)c(CC(C)(C)C(=O)O)n2Cc1ccc(Cl)cc1
[out] 88.4

[in] Requested read-out: cell viability. Entry: N[C@@H](CCC(=O)N[C@@H](CS)C(=O)NCC(=O)O)C(=O)O
[out] 92.1

[in] Requested read-out: cell viability. Entry: O=c1oc2c(cc1O)oc(=O)c1cc(O)c(O)c(O)c12
[out] 119

[in] Requested read-out: cell viability. Entry: COc1ccc2c(c1)c(CC(=O)O)c(C)n2C(=O)c1ccc(Cl)cc1
[out] 94.5

[in] Requested read-out: cell viability. Entry: CC(=O)N1CCN(c2ccc(OC[C@@H]3CO[C@@](Cn4ccnc4)(c4ccc(Cl)cc4Cl)O3)cc2)CC1 (racemic)
[out] 88.1

[in] Requested read-out: cell viability. Entry: Cc1[nH]n(-c2ccccc2)c(=O)c1C1(C(F)(F)F)C(=O)N(c2ccccc2)C2=C1C(=O)CC(C)(C)C2 (configuration not stated)
[out] 99.8

[in] Requested read-out: cell viability. Entry: Cc1nnc(-c2ccc(N3CCC(Oc4ccccc4C(F)(F)F)CC3)nn2)s1
[out] 36.6

[in] Requested read-out: cell viability. Entry: O[C@H]1[C@H](O)[C@@H](O)CN2CC[C@H](O)[C@H]12
[out] 117

[in] Requested read-out: cell viability. Entry: Cc1cc(O)c2c(c1)C(=O)c1cc(O)cc(O)c1C2=O
[out] 71.4

[in] Requested read-out: cell viability. Entry: c1ccc2c(c1)SCc1c-2[nH]c2ccccc12
[out] 23.9

[in] Requested read-out: cell viability. Entry: CCCCCCCCCCCCCCOc1ccc(C(=O)O)o1
[out] 87

[in] Requested read-out: cell viability. Entry: CC(=O)N[C@@H](CS)C(=O)O
[out] 105

[in] Requested read-out: cell viability. Entry: NS(=O)(=O)c1ccc(S(=O)(=O)Nc2cccc3c(Cl)c[nH]c23)cc1
[out] 7.24

[in] Requested read-out: cell viability. Entry: O=C(Oc1ccc([N+](=O)[O-])cc1)N1CCC(C(O)(c2ccc3c(c2)OCO3)c2ccc3c(c2)OCO3)CC1
[out] 92.9

[in] Requested read-out: cell viability. Entry: O=C(Cc1cccc(OC(F)(F)F)c1)Nc1ccc(CCCCc2nnc(NC(=O)Cc3ccccn3)s2)nn1
[out] 73.7
